- procedure-text: self-splicing fitness, log relative to wild type (ln ratio); higher = more splicing; Tetrahymena group I intron in knt gene, E. coli kanamycin selection, DiMSum; sequences stand for … in CUCUCU…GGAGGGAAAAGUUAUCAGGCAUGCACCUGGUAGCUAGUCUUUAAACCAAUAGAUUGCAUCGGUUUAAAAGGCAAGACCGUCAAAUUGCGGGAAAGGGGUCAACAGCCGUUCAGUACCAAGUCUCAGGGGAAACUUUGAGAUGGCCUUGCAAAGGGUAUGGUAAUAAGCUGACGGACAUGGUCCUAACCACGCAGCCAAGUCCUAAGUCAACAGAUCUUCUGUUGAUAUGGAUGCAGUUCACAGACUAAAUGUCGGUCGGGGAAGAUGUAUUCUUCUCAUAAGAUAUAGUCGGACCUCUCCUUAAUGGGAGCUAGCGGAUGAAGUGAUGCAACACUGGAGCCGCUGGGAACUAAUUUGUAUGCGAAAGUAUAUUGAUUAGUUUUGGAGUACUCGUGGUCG;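 note: selection with 25 µg/mL kanamycin versus none on LB agar overnight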
- settings: 30 °C
Assign 1.0 whenever self-splicing fitness (ln) does not fall below -2; assign 0.0 whenever it does.

Observe how each entry below is paired with its result.
AUCCAGCAAUAUUACGUCUC 1.0
CACUAGCAAUAUUACGCUUU 0.0
UACCAGCAAUAUUACGAACG 1.0

State whether the measured self-splicing fitness (ln) reaches -2, counting equality as reaching it, for ACCAAGCAAUAUUACGGCGA
1.0

Given CUUCAGCAAUAUUACGGGGC , state whether its self-splicing fitness (ln) is at least -2.
0.0

Is it the case that AAGUAGCAAUAUUACGCUUA has self-splicing fitness (ln) reaching or exceeding -2?
1.0

Threshold query (self-splicing fitness (ln) >= -2) on AGUCAGCAAUAUUACGUCCG
0.0

Decide: is the reported value of self-splicing fitness (ln) for CGAAAGCAAUAUUACGCGCU equal to or greater than -2?
0.0

Textbook exercise: given the entry CAAAAGCAAUAUUACGGUGC , state whether its self-splicing fitness (ln) is greater than or equal to -2.
0.0
